The origin of these recorded values is PubChem BioAssay AID504329.

# Protocol Summary: H1N1 influenza NS1A inhibitors, functional cell based assay (AID 504329)
# Applied Conditions: percent inhibition, at 12.5 µM, hits give high values
Hit rate of the full screen: of about 340,000 compounds, about 1,000 (0.29%) were called active. Only a sample is shown. Results with a measured potency or affinity are listed apart.
Endpoint Label: inhibition (%)
Unit % implied. Number only.

Sample answers from the record:
Compound: COC(=O)c1ccc(CNC(=O)c2coc3ccccc3c2=O)cc1
Endpoint Label: inhibition
Value Measured: -15.6
//
Compound: CCNC(=S)N1CCN(c2ccccn2)CC1
Endpoint Label: inhibition
Value Measured: -6.5
//
Compound: C/C(=N\NC(=S)NC1CCCCC1)c1cccs1
Endpoint Label: inhibition
Value Measured: 7.94
//
Compound: Cc1cc(NC(=O)CC(C)C)c(=O)n(Cc2c(F)cccc2Cl)c1
Endpoint Label: inhibition
Value Measured: -1.36

Input: Given the entry `CCN(CC)c1ccc(O)c(C=Nc2ccc(C)c(C)c2)c1` , report its measured inhibition.
Output: -19.5

Input: Given the entry CCN(CC)CCC(c1ccc2c(c1)OCO2)c1c(OC)cc(OC)c2c(-c3ccccc3)cc(=O)oc12 (stereo not given) , report its measured inhibition.
Output: 15.2

Input: Given the entry `Cc1cc(=O)[nH]c(N/N=C/c2ccccc2C(F)(F)F)n1` , report its measured inhibition.
Output: -5.35

Input: Given the entry Cc1cccc(C)c1NC(=S)N(CCN(C)C)C(C)c1ccccn1 (stereo not given) , report its measured inhibition.
Output: 10.7

Input: Given the entry `CN(C)c1ccc(/C=C/c2cc[n+](C)c3ccccc23)cc1` , report its measured inhibition.
Output: 58.9

Input: Given the entry `[O-]c1c[n+](-c2ccc(-[n+]3cc([O-])on3)cc2)no1` , report its measured inhibition.
Output: 3.68
